Tested on: TNF-α production by LPS stimulated macrophages
Experiment: TNF-α production inhibitory activity by LPS stimulated macrophages
Type: cell-based
Conditions: Macrophage, BALB/c mouse peritoneal macrophages, cultured for 8 hours, ELISA
READOUT LABEL: IC50 (nM)
Express it in nM; write the number only.

Fill in: TNF-α production by LPS stimulated macrophages IC50 for O=C(Nc1c(Cl)cncc1Cl)c1cn([C@H]2CCN(C(=O)OCc3ccccc3)C2)c2ncccc2c1=O [Example 10] = 10

Fill in: TNF-α production by LPS stimulated macrophages IC50 for COC(=O)N1CC(n2cc(C(=O)Nc3cccnc3)c(=O)c3cccnc32)C1 [Example 32] = 4000

Fill in: TNF-α production by LPS stimulated macrophages IC50 for O=C(Nc1ccncc1)c1cn(C2CCSCC2)c2ncccc2c1=O [Example 100] = 70

Fill in: TNF-α production by LPS stimulated macrophages IC50 for O=C(Nc1c(Cl)cncc1Cl)c1cn(C2CCN(C(=O)OCc3ccccc3)CC2)c2ncccc2c1=O [Example 25] = 0.4

Fill in: TNF-α production by LPS stimulated macrophages IC50 for CO[C@H]1CC[C@H](n2cc(C(=O)Nc3ccncc3)c(=O)c3cccnc32)CC1 [Example 126] = 1800

Fill in: TNF-α production by LPS stimulated macrophages IC50 for O=C(Nc1c(Cl)cncc1Cl)c1cn(C2CCN(Cc3ccccc3)CC2)c2ncccc2c1=O [Example 46] = 500

Fill in: TNF-α production by LPS stimulated macrophages IC50 for CCn1cc(C(=O)NCCc2ccncc2)c(=O)c2ccc(C)nc21 [Comp. Ex., reference compound] = 10000

Fill in: TNF-α production by LPS stimulated macrophages IC50 for O=C(Nc1ccncc1)c1cn(N2CCOCC2)c2ncccc2c1=O [Example 106] = 90

Fill in: TNF-α production by LPS stimulated macrophages IC50 for CCNC(=O)N1CCC(n2cc(C(=O)Nc3c(Cl)cncc3Cl)c(=O)c3cccnc32)CC1 [Example 27] = 10

Fill in: TNF-α production by LPS stimulated macrophages IC50 for O=C1CCC(n2cc(C(=O)Nc3ccncc3Cl)c(=O)c3cccnc32)CC1 [Example 123] = 1200

Fill in: TNF-α production by LPS stimulated macrophages IC50 for COC(=O)N1CC(n2cc(C(=O)Nc3c(Cl)cncc3Cl)c(=O)c3cccnc32)C1 [Example 34] = 80

Fill in: TNF-α production by LPS stimulated macrophages IC50 for CN1CCC(n2cc(C(=O)Nc3c(Cl)cncc3Cl)c(=O)c3cccnc32)CC1 [Example 51] = 50

Fill in: TNF-α production by LPS stimulated macrophages IC50 for O=C(Nc1c(Cl)cncc1Cl)c1cn(C2CCSCC2)c2ncccc2c1=O [Example 101] = 3

Fill in: TNF-α production by LPS stimulated macrophages IC50 for COc1ccc(C2CNC(=O)C2)cc1OC1CCCC1 (centres unmarked) [Rolipram, reference compound] = 100

Fill in: TNF-α production by LPS stimulated macrophages IC50 for O=C(Nc1c(Cl)cncc1Cl)c1cn(C2CCS(=O)(=O)CC2)c2ncccc2c1=O [Example 102 (Sulfon)] = 200

Fill in: TNF-α production by LPS stimulated macrophages IC50 for COC(=O)N1CC[C@H](n2cc(C(=O)Nc3c(Cl)cncc3Cl)c(=O)c3cccnc32)C1 [Example 11] = 4

Fill in: TNF-α production by LPS stimulated macrophages IC50 for NC(=O)N1CC[C@H](n2cc(C(=O)Nc3c(Cl)cncc3Cl)c(=O)c3cccnc32)C1 [Example 20] = 3000

Fill in: TNF-α production by LPS stimulated macrophages IC50 for COC(=O)N1CCC(n2cc(C(=O)Nc3c(Cl)cncc3Cl)c(=O)c3cccnc32)CC1 [Example 26] = 0.2

Fill in: TNF-α production by LPS stimulated macrophages IC50 for COC(=O)N1CC[C@@H](n2cc(C(=O)Nc3c(Cl)cccc3Cl)c(=O)c3cccnc32)C1 [Example 16] = 300

Fill in: TNF-α production by LPS stimulated macrophages IC50 for COC(=O)N1CC[C@H](n2cc(C(=O)Nc3c(Cl)cccc3Cl)c(=O)c3cccnc32)C1 [Example 9] = 100

Fill in: TNF-α production by LPS stimulated macrophages IC50 for O=CN1CCC(n2cc(C(=O)Nc3c(Cl)cncc3Cl)c(=O)c3cccnc32)CC1 [Example 48] = 1500

Fill in: TNF-α production by LPS stimulated macrophages IC50 for O=C(Nc1c(Cl)cncc1Cl)c1cn([C@H]2C[C@H]3COC(=O)N3C2)c2ncccc2c1=O [Example 86] = 3000

Fill in: TNF-α production by LPS stimulated macrophages IC50 for O=C(Nc1c(Cl)cncc1Cl)c1cn(N2CCOCC2)c2ncccc2c1=O [Example 107] = 3

Fill in: TNF-α production by LPS stimulated macrophages IC50 for CN(C)C(=O)[C@@H]1C[C@H](n2cc(C(=O)Nc3c(Cl)cncc3Cl)c(=O)c3cccnc32)CN1C(=O)OCc1ccccc1 [Example 92] = 70

Fill in: TNF-α production by LPS stimulated macrophages IC50 for O=C(Nc1c(Cl)cncc1Cl)c1cn([C@H]2CC[C@H](O)CC2)c2ncccc2c1=O [Example 117] = 2

Fill in: TNF-α production by LPS stimulated macrophages IC50 for O=C(Nc1c(Cl)cncc1Cl)c1cn([C@@H]2CCOC2)c2ncccc2c1=O [Example 39] = 5000

Fill in: TNF-α production by LPS stimulated macrophages IC50 for CNC(=S)N1CC[C@H](n2cc(C(=O)Nc3c(Cl)cncc3Cl)c(=O)c3cccnc32)C1 [Example 19] = 7

Fill in: TNF-α production by LPS stimulated macrophages IC50 for O=C(Nc1c(Cl)cncc1Cl)c1cn([C@H]2CC[C@@H](O)CC2)c2ncccc2c1=O [Example 119] = 0.04

Fill in: TNF-α production by LPS stimulated macrophages IC50 for O=C(Nc1ccncc1)c1cn(C2CC2)c2ncccc2c1=O [Example 139] = 370

Fill in: TNF-α production by LPS stimulated macrophages IC50 for CO[C@H]1CC[C@H](n2cc(C(=O)Nc3c(Cl)cncc3Cl)c(=O)c3cccnc32)CC1 [Example 127] = 15

Fill in: TNF-α production by LPS stimulated macrophages IC50 for CN(C)C(=O)[C@@H]1C[C@H](n2cc(C(=O)Nc3c(Cl)cncc3Cl)c(=O)c3cccnc32)CN1 [Example 93] = 2000

Fill in: TNF-α production by LPS stimulated macrophages IC50 for CCNC(=O)N1CC[C@H](n2cc(C(=O)Nc3c(Cl)cncc3Cl)c(=O)c3cccnc32)C1 [Example 18] = 1
